# System: 323965-272-R-J2-PDC complex spheroid growth, % test/control;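 note: compound exposure lasted 7 days starting three days after spheroid seeding; 100% = DMSO vehicle control wells with viability set relative to vehicle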
# Method: Anticancer human tumor 323965-272-R-J2-PDC patient-derived pancreatic carcinoma cell line growth inhibition [Asc]
# Experimental setup: second compound 3.16 µM; first compound 0.01 µM; active compounds read low
Value type: viability, T/C

[
  {
    "Compound": "Cn1ncnc1[C@H]1c2n[nH]c(=O)c3cc(F)cc(c23)N[C@@H]1c1ccc(F)cc1 + Cc1c(S(C)(=O)=O)c(-c2cc(F)cc(N3CCN(c4ccc(NS(=O)(=O)c5ccc(NC(CCN6CCC(C(=O)OCCCP(=O)(O)O)CC6)CSc6ccccc6)c(S(=O)(=O)C(F)(F)F)c5)cc4)CC3)c2)c(-c2ccc(Cl)cc2)n1C(C)C",
    "viability, T/C": "75.4%"
  },
  {
    "Compound": "O=C(c1ccc(F)c(F)c1Nc1ccc(I)cc1F)N1CC(O)([C@@H]2CCCCN2)C1 + Cc1c(S(C)(=O)=O)c(-c2cc(F)cc(N3CCN(c4ccc(NS(=O)(=O)c5ccc(NC(CCN6CCC(C(=O)OCCCP(=O)(O)O)CC6)CSc6ccccc6)c(S(=O)(=O)C(F)(F)F)c5)cc4)CC3)c2)c(-c2ccc(Cl)cc2)n1C(C)C",
    "viability, T/C": "63.5%"
  }
]

Reported viability, T/C for NC1CCC(NC2CC2c2ccccc2)CC1 (stereo not drawn) + Cc1c(S(C)(=O)=O)c(-c2cc(F)cc(N3CCN(c4ccc(NS(=O)(=O)c5ccc(NC(CCN6CCC(C(=O)OCCCP(=O)(O)O)CC6)CSc6ccccc6)c(S(=O)(=O)C(F)(F)F)c5)cc4)CC3)c2)c(-c2ccc(Cl)cc2)n1C(C)C was 76.5%

Data credit: PubChem BioAssay AID1963425
